Hey, just so you know, these numbers are from patent US20230372221A1.

Tested on: oxidation of the L-DOPA under the action of the bacterial extract (intracellular extract of Cutibacterium acnes CIP 53.117)
Procedure Summary: In vitro evaluation of the ability to inhibit the development of the colour (absorbance at 475 nm of L-DOPA + Cutibacterium acnes extract)
Assay type: biochemical
Settings: test compound 50 μM; duration 100 minutes; 32° C.
Metric: optical density at 475 nm

• CCNC(=O)c1ccc[nH]c1=S = 0.0598
• CCOC(=O)CNC(=O)c1ccc[nH]c1=S = 0.0585
• CCOC(=O)CN(C)C(=O)c1ccc[nH]c1=S = 0.0654
• CN(CC(=O)O)C(=O)c1ccc[nH]c1=S = 0.0632

---

System: oxidation of the L-DOPA under the action of the bacterial extract (intracellular extract of Cutibacterium acnes CIP 53.117)
Procedure Summary: In vitro evaluation of the ability to inhibit the development of the colour (absorbance at 475 nm of L-DOPA + Cutibacterium acnes extract)
Assay type: biochemical
Settings: test compound 100 μM; from initial rate of oxidation between 10 and 40 minutes vs reference composition
Protocol: This method is based on the measurement of absorbance, over time, carried out directly on a composition formed of a mixture of intracellular extract of bacteria of Cutibacterium acnes type, of 3,4-dihydroxy-L-phenylalanine (L-DOPA) and of a test compound. […] The test compositions and the reference composition are introduced separately into wells of a 96-well microplate suitable for reading in visible spectrophotometry, and placed at a temperature of 32° C. […]
Metric: % inhib (percentage of inhibition of the formation of the coloured product)

• CCOC(=O)CN(C)C(=O)c1ccc[nH]c1=S = 71%
• CN(CC(=O)O)C(=O)c1ccc[nH]c1=S = 78%
• CCOC(=O)CNC(=O)c1ccc[nH]c1=S = 82%
• CCCCc1ccc(O)cc1O [Lucinol, 4-butylresorcinol, reference compound] = 0%
• O=c1cc(CO)occ1O [Kojic acid, kojic acid, reference compound] = −1%
• O=C(O)CNC(=O)c1ccc[nH]c1=S = 84%
• CCNC(=O)c1ccc[nH]c1=S = 100%

---

Test system: oxidation of the L-DOPA under the action of the bacterial extract (intracellular extract of Cutibacterium acnes CIP 53.117)
Procedure Summary: In vitro evaluation of the ability to inhibit the development of the colour (absorbance at 475 nm of L-DOPA + Cutibacterium acnes extract)
Type: biochemical
Settings: test compound 100 μM; duration 0 minutes; 32° C.
Metric: optical density at 475 nm

- O=c1cc(CO)occ1O [Kojic acid, kojic acid, reference compound]: 0.0599
- CCNC(=O)c1ccc[nH]c1=S: 0.0568
- CCOC(=O)CN(C)C(=O)c1ccc[nH]c1=S: 0.0578
- O=C(O)CNC(=O)c1ccc[nH]c1=S: 0.0547
- CCOC(=O)CNC(=O)c1ccc[nH]c1=S: 0.0532
- CN(CC(=O)O)C(=O)c1ccc[nH]c1=S: 0.0579
- CCCCc1ccc(O)cc1O [Lucinol, 4-butylresorcinol, reference compound]: 0.0552

---

Listed compounds paired with reported optical density at 475 nm
System: oxidation of the L-DOPA under the action of the bacterial extract (intracellular extract of Cutibacterium acnes CIP 53.117)
Procedure Summary: In vitro evaluation of the ability to inhibit the development of the colour (absorbance at 475 nm of L-DOPA + Cutibacterium acnes extract)
Assay type: biochemical
Settings: test compound 25 μM; duration 30 minutes; 32° C.
Metric: optical density at 475 nm

- CN(CC(=O)O)C(=O)c1ccc[nH]c1=S: 0.0594
- CCOC(=O)CNC(=O)c1ccc[nH]c1=S: 0.0575
- CCNC(=O)c1ccc[nH]c1=S: 0.0587
- CCOC(=O)CN(C)C(=O)c1ccc[nH]c1=S: 0.0609

---

Tested on: oxidation of the L-DOPA under the action of the bacterial extract (intracellular extract of Cutibacterium acnes CIP 53.117)
Procedure Summary: In vitro evaluation of the ability to inhibit the development of the colour (absorbance at 475 nm of L-DOPA + Cutibacterium acnes extract)
Type: biochemical
Settings: test compound 50 μM; duration 80 minutes; 32° C.
Metric: optical density at 475 nm

• CN(CC(=O)O)C(=O)c1ccc[nH]c1=S = 0.0623
• CCOC(=O)CNC(=O)c1ccc[nH]c1=S = 0.0579
• CCNC(=O)c1ccc[nH]c1=S = 0.0574
• CCOC(=O)CN(C)C(=O)c1ccc[nH]c1=S = 0.0634

---

System: oxidation of the L-DOPA under the action of the bacterial extract (intracellular extract of Cutibacterium acnes CIP 53.117)
Procedure Summary: In vitro evaluation of the ability to inhibit the development of the colour (absorbance at 475 nm of L-DOPA + Cutibacterium acnes extract)
Type: biochemical
Settings: test compound 12.5 μM; from initial rate of oxidation between 10 and 40 minutes vs reference composition
Listed compounds paired with reported % inhib (percentage of inhibition of the formation of the coloured product)
Metric: % inhib (percentage of inhibition of the formation of the coloured product)

* CCNC(=O)c1ccc[nH]c1=S | 66%
* CCOC(=O)CNC(=O)c1ccc[nH]c1=S | 57%
* CN(CC(=O)O)C(=O)c1ccc[nH]c1=S | 39%
* CCOC(=O)CN(C)C(=O)c1ccc[nH]c1=S | 43%

---

System: oxidation of the L-DOPA under the action of the bacterial extract (intracellular extract of Cutibacterium acnes CIP 53.117)
Procedure Summary: In vitro evaluation of the ability to inhibit the development of the colour (absorbance at 475 nm of L-DOPA + Cutibacterium acnes extract)
Type: biochemical
Settings: test compound 25 μM; duration 20 minutes; 32° C.
Listed compounds paired with reported optical density at 475 nm
Metric: optical density at 475 nm

* CCOC(=O)CNC(=O)c1ccc[nH]c1=S [Compound 5] | 0.0572
* CN(CC(=O)O)C(=O)c1ccc[nH]c1=S [Compound 3] | 0.0578
* CCNC(=O)c1ccc[nH]c1=S [Compound 1] | 0.0572
* CCOC(=O)CN(C)C(=O)c1ccc[nH]c1=S [Compound 4] | 0.0595

---

Test system: oxidation of the L-DOPA under the action of the bacterial extract (intracellular extract of Cutibacterium acnes CIP 53.117)
Procedure Summary: In vitro evaluation of the ability to inhibit the development of the colour (absorbance at 475 nm of L-DOPA + Cutibacterium acnes extract)
Format: biochemical
Settings: test compound 25 μM; duration 100 minutes; 32° C.
Metric: optical density at 475 nm

• CN(CC(=O)O)C(=O)c1ccc[nH]c1=S = 0.0664
• CCOC(=O)CNC(=O)c1ccc[nH]c1=S = 0.0627
• CCOC(=O)CN(C)C(=O)c1ccc[nH]c1=S = 0.0695
• CCNC(=O)c1ccc[nH]c1=S = 0.0627

---

Test system: oxidation of the L-DOPA under the action of the bacterial extract (intracellular extract of Cutibacterium acnes CIP 53.117)
Procedure Summary: In vitro evaluation of the ability to inhibit the development of the colour (absorbance at 475 nm of L-DOPA + Cutibacterium acnes extract)
Type: biochemical
Settings: test compound 12.5 μM; duration 120 minutes; 32° C.
Metric: optical density at 475 nm

- CCOC(=O)CNC(=O)c1ccc[nH]c1=S: 0.0674
- CCNC(=O)c1ccc[nH]c1=S: 0.0681
- CN(CC(=O)O)C(=O)c1ccc[nH]c1=S: 0.0694
- CCOC(=O)CN(C)C(=O)c1ccc[nH]c1=S: 0.0709

---

Test system: oxidation of the L-DOPA under the action of the bacterial extract (intracellular extract of Cutibacterium acnes CIP 53.117)
Procedure Summary: In vitro evaluation of the ability to inhibit the development of the colour (absorbance at 475 nm of L-DOPA + Cutibacterium acnes extract)
Format: biochemical
Settings: test compound 50 μM; duration 20 minutes; 32° C.
Metric: optical density at 475 nm

* CCNC(=O)c1ccc[nH]c1=S | 0.0568
* CCOC(=O)CNC(=O)c1ccc[nH]c1=S | 0.0557
* CN(CC(=O)O)C(=O)c1ccc[nH]c1=S | 0.0575
* CCOC(=O)CN(C)C(=O)c1ccc[nH]c1=S | 0.0580

---

Listed compounds paired with reported optical density at 475 nm
Tested on: oxidation of the L-DOPA under the action of the bacterial extract (intracellular extract of Cutibacterium acnes CIP 53.117)
Procedure Summary: In vitro evaluation of the ability to inhibit the development of the colour (absorbance at 475 nm of L-DOPA + Cutibacterium acnes extract)
Assay type: biochemical
Settings: test compound 12.5 μM; duration 10 minutes; 32° C.
Metric: optical density at 475 nm

• CCOC(=O)CNC(=O)c1ccc[nH]c1=S [Compound 5] = 0.0535
• CN(CC(=O)O)C(=O)c1ccc[nH]c1=S [Compound 3] = 0.0565
• CCOC(=O)CN(C)C(=O)c1ccc[nH]c1=S [Compound 4] = 0.0571
• CCNC(=O)c1ccc[nH]c1=S [Compound 1] = 0.0553

---

Test system: oxidation of the L-DOPA under the action of the bacterial extract (intracellular extract of Cutibacterium acnes CIP 53.117)
Procedure Summary: In vitro evaluation of the ability to inhibit the development of the colour (absorbance at 475 nm of L-DOPA + Cutibacterium acnes extract)
Format: biochemical
Settings: test compound 25 μM; duration 10 minutes; 32° C.
Listed compounds paired with reported optical density at 475 nm
Metric: optical density at 475 nm

* CCNC(=O)c1ccc[nH]c1=S | 0.0560
* CN(CC(=O)O)C(=O)c1ccc[nH]c1=S | 0.0569
* CCOC(=O)CNC(=O)c1ccc[nH]c1=S | 0.0567
* CCOC(=O)CN(C)C(=O)c1ccc[nH]c1=S | 0.0586
